# System: L1210 leukemia ip in BDF1 mice, survival T/C
# experimental-protocol: NCI In Vivo Anticancer Drug Screen. Data for tumor model L1210 Leukemia (intraperitoneal) in B6D2F1 (BDF1) mice
# assay-setup: endpoint: mean survival time; dose: 25.0 mg/kg/injection; schedule: Q01DX001 (ip); vehicle: Klucel (hydroxypropylcellulose) (HPC); higher = longer survival
Inconclusive results and toxic doses are left out.
recorded-endpoint: T/C

# count of solved cases: 5
O=C(O)CCCC[Se][Se]CCCCC(=O)O = 102 % of control
CCCNC(=O)Sc1ccc(Cl)cc1 = 95 % of control
O=c1c(N=Nc2ccc(Cl)cc2)c(O)n(-c2ccccc2Cl)c(=S)n1-c1ccccc1 = 92 % of control
CC1(C)N=C(N)N=C(N)N1c1cccc(CC(C(=O)Nc2ccc(S(=O)(=O)F)cc2)c2ccccc2)c1 (stereo unspecified) = 95 % of control
C[N+](C)(C)CC1(COC(=O)C(O)(c2ccccc2)c2ccccc2)CC1 = 93 % of control

The measured T/C associated with Cc1nc(N)[nH]c(=O)c1CCCNC(=O)Cc1ccccc1 reads 97 % of control

====

# Tested on: L1210 leukemia ip in BDF1 mice, survival T/C
# experimental-protocol: NCI In Vivo Anticancer Drug Screen. Data for tumor model L1210 Leukemia (intraperitoneal) in B6D2F1 (BDF1) mice
# assay-setup: endpoint: mean survival time; dose: 6.25 mg/kg/injection; schedule: Q01DX009 (ip); vehicle: saline; higher = longer survival
# Experimental: The antitumor activity of compounds was measured in mice bearing transplantable tumors. Survival or tumor size were measured and the results are expressed as the measurement made in the treated group (T) divided by the measurement made in the vehicle treated control group (C). The tumor model used in this assay is L1210 Leukemia (intraperitoneal) in B6D2F1 (BDF1) mice
Inconclusive results and toxic doses are left out.
For each record, write down the corresponding T/C.

[O]=[Cr](=[O])([OH])[O][Cr](=[O])(=[O])[OH] = 104 % of control
COC(=O)[C@@H]1c2cc3c(c(O)c2[C@@H](OC)C[C@@]1(C)O)C(=O)c1c(O)cc2c(c1C3=O)OC1O[C@@]2(C)[C@H](O)[C@@H](N(C)C)[C@@H]1O = 106 % of control
NCCNc1ncnc2c1ncn2C1OC(CO)C(O)C1O (configuration not stated) = 115 % of control
C[N+]1=C2CCCCCC2=C(N)CC1 = 104 % of control
N#CC(=C=[N-])[n+]1ccccc1 = 100 % of control
c1ccc(C2CN3CCSC3=N2)cc1 (configuration not stated) = 102 % of control

Next compound, please.
The measured T/C associated with CCN(CC)P(=O)(N1CC1C)N1CC1C (configuration not stated) reads 122 % of control

====

For each record, write down the corresponding T/C.
# System: L1210 leukemia ip in BDF1 mice, survival T/C
# experimental-protocol: NCI In Vivo Anticancer Drug Screen. Data for tumor model L1210 Leukemia (intraperitoneal) in B6D2F1 (BDF1) mice
# assay-setup: endpoint: mean survival time; dose: 400.0 mg/kg/injection; schedule: Q04DX002 (ip); vehicle: saline with Tween-80; higher = longer survival
Inconclusive results and toxic doses are left out.

c1ccc(C(c2ccccc2)[Si](c2ccccc2)(c2ccccc2)C(c2ccccc2)c2ccccc2)cc1 = 110 % of control

// each compound listed below needs its T/C
1. O=[N+]([O-])c1ccccc1C1CCCCC1
2. CCCCSc1nc(SCCCC)nc(SCCCC)n1
3. C/C(=N\N=C(/C)c1ccc([N+](=O)[O-])cc1)c1ccc([N+](=O)[O-])cc1
4. CCOC(=O)c1c(O)c(=O)[nH]c2ccccc12
5. O=C(/C=C/c1ccccc1)NC(=S)Nc1ccc(CCO)cc1
6. CC1CC(C)OC2(CCCc3ccccc32)O1 (stereo unspecified)

1: 100 % of control; 2: 89 % of control; 3: 103 % of control; 4: 97 % of control; 5: 104 % of control; 6: 104 % of control

// each compound listed below needs its T/C
1. O=[N+]([O-])c1ccc(O)c(CCl)c1
2. C=C(OCC)P(=O)(OCCCC)OCCCC
3. CC(C)(CO)NC(=O)COc1ccc(Cl)cc1Cl
4. Cc1cc(C2=NCC(C)(C)S2)ccc1O

["104 % of control", "93 % of control", "94 % of control", "88 % of control"]

// each compound listed below needs its T/C
1. Cc1ccccc1NC(=S)NCCC(=O)O
2. COc1ccc(CCNC(=O)c2ccccc2N)cc1OC
3. c1cc[c]([Ge]([CH2][CH2][Sn]([c]2ccccc2)([c]2ccccc2)[c]2ccccc2)([CH2][CH2][Sn]([c]2ccccc2)([c]2ccccc2)[c]2ccccc2)[c]2ccccc2)cc1
4. CN(C)c1nc(N)c(N=O)c(N)n1
5. CCOC(=O)c1ccnc2ccc(OC)cc12

1. 97 % of control
2. 95 % of control
3. 94 % of control
4. 104 % of control
5. 104 % of control
